Experiment: amyloid nucleation score (Sup35N fusion, yeast selection) (log enrichment); library NNK2; higher = more nucleation; inactive = no reads after selection;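 also: zero at mode of non-aggregating sequences after 7 days selection at 30°C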
Use MET when the recorded amyloid nucleation score is no lower than -0.09; use NOT MET when it is lower.

ILYGSGVFSSG    NOT MET
KCLSRNPHSIDFMRNARYKD    NOT MET
GVLRENGN    MET
GADGTSVLDFCDSVTV    NOT MET
CAKGPKSWQNGNE    MET

Problem: # bool: amyloid nucleation score of "MRHILCISSVGRFNFRCCFK" >= -0.09
Result: MET

Problem: # bool: amyloid nucleation score of "VIQIVNFSDNIMTCLHNHLQ" >= -0.09
Result: MET

Problem: # bool: amyloid nucleation score of "ADFTWVKSHVCHMEWSR" >= -0.09
Result: MET

Provenance of the data: the supplement of paper PMC12042874
